- measurement description: CellTiter-Glo luminescent readout of SW480 viability loss, NPC library primary (AID 1117343)
- study conditions: CellTiter-Glo luminescence; at 20 µM (top of the series)
quantity: viability decrease (inhibition) (%)
Form entry: value (%) — number only.

Reference set, count: 3
CCC(COC(=O)c1cc(OC)c(OC)c(OC)c1)(c1ccccc1)N(C)C (configuration not stated)
22.7
CCC1(CC)C(=O)C=CNC1=O
4.3
C1CCC(NC2CCCCC2)CC1
-22

Now look at this entry.
Ask: Name the recorded viability decrease (inhibition) for O=c1oc2ccccc2c(O)c1C(CC(O)c1ccc(-c2ccc(Br)cc2)cc1)c1ccccc1 (configuration not stated) .
Result: 122

====

- measurement description: JHH-DIPG-1 glioma cell viability, MIPE5.0 library, CellTiter-Glo luminescence, qHTS (AID 1347067);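 note: cells exposed to compound for 48 hours before readout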
- study conditions: JHH-DIPG-1 glioma viability, CellTiter-Glo ATP luminescence
Results filed as inconclusive are left out. Calls of active or inactive are those of the source. Cut-off not given; nearly all actives show AC50 up to about 26 µM.
quantity: AC50

Reference set, count: 8
CCNC(=O)CC1N=C(c2ccc(Cl)cc2)c2cc(OC)ccc2-n2c(C)nnc21 (centres undefined)
inactive
COc1cc2cc(c1Cl)N(C)C(=O)C[C@H](OC(=O)C(C)C)[C@]1(C)O[C@@H]1[C@H](C)[C@@H]1C[C@@](O)(NC(=O)O1)[C@H](OC)/C=C/C=C(\C)C2
7.42 nM (active)
CCCC[N+]1(C)[C@@H]2CC(OC(=O)[C@H](CO)c3ccccc3)C[C@H]1[C@@H]1O[C@@H]12 (some centres undefined)
inactive
C/C(O)=C(\C#N)C(=O)Nc1cc(Br)ccc1Br
inactive
CC(C)(NC(=O)O[C@@H]1CN2CCC1CC2)c1csc(-c2ccc(F)cc2)n1
inactive
CC1=C2C[C@H]3[C@@H](CC=C4C[C@@H](O)CC[C@@]43C)[C@@H]2CC[C@]12O[C@@H]1C[C@H](C)CN[C@H]1[C@H]2C
inactive
Cc1[nH]nc2ccc(-c3cncc(OC[C@@H](N)Cc4c[nH]c5ccccc45)c3)cc12
525 nM (active)
CC1(C)CC(O)CC(C)(C)N1O
inactive

Now look at this entry.
Ask: Name the recorded AC50 for O=C(O)C1=CCCN(CCOC(c2ccc(C(F)(F)F)cc2)c2ccc(C(F)(F)F)cc2)C1 .
Result: inactive

====

- measurement description: viability rescue of complex I mutant cybrids, primary screen, cell-based, galactose medium, ATP luminescence (AID 1645843);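 note: positive z means more ATP and so rescue of galactose-driven cybrid death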
- study conditions: complex I mutant cybrid cells, 72 h, stronger effect = higher value
// false (0) strictly below -0.1 in z-score; true (1) otherwise

Take a look at these entries with their results.
Cc1ccc(S(=O)(=O)N[C@@H](CCCCN)C(=O)CCl)cc1
false (0)
Oc1ccc(C2(c3ccc(O)cc3)CCCCC2)cc1
false (0)
CC(N)c1cccc(Cl)c1Cl (centres undefined)
true (1)
Oc1ccc2c3c1O[C@H]1[C@@H](O)CC[C@@]4(O)[C@@H](C2)N(CC2CCC2)CC[C@]314
true (1)
CCOC(=O)c1ncn2c1CN(C)C(=O)c1cc(N=[N+]=[N-])ccc1-2
true (1)

Ask: Does z-score meet or surpass -0.1 for CN1C(=O)CN=C(c2ccccc2)c2cc(Cl)ccc21 ?
Result: true (1)

Ask: Queued: CC1(C(=O)O)C2CCC(O2)C1(C)C(=O)O (centres undefined)
Result: false (0)

Ask: Queued: CCNc1nc(Cl)nc(NC(C)C)n1
Result: true (1)

Ask: Queued: Oc1ccc2c3c1O[C@H]1c4oc5ccccc5c4C[C@@]4(O)[C@@H](C2)N(CC2CC2)CC[C@]314
Result: true (1)

Ask: Queued: O=c1c2ccccc2[se]n1-c1ccccc1
Result: false (0)

Ask: Queued: CCS(=O)(=O)Nc1cccc(C(=C2CCCCC2)c2cnc[nH]2)c1
Result: false (0)

Ask: Queued: OC(Cc1ccncc1)C(Cl)(Cl)Cl (centres undefined)
Result: false (0)

Ask: Queued: CCCCCOc1c(OC)ccc2cc(C(=O)NCc3ccc4c(c3)OCO4)c(=O)[nH]c12
Result: true (1)

Ask: Queued: Cn1c(CCCC(=O)O)nc2cc(N(CCCl)CCCl)ccc21
Result: true (1)
